- system: c-Src SH2;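 note: peptide library displayed on the E. coli surface as eCPX fusions, selected cells deep-sequenced, score is each peptide's frequency after selection divided by its frequency in the input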
- measurement notes: SH2 binding enrichment of the phosphorylated peptide, bacterial display (enrichment ratio); higher = better substrate or ligand; peptides without Tyr show the background
recorded metric: SH2 binding enrichment
Give bare numbers.

# example entries with known answers
INSERT INTO results (input_sequence, recorded_metric, meas_value) VALUES
  ('ALLTKYSHSSM [DSCC1_Y374]', 'SH2 binding enrichment', 0.406),
  ('LPKVSYMKAID [GLRA1_Y307_V308M]', 'SH2 binding enrichment', 0.473),
  ('NLFIEYPTGSG [IRF2BPL_Y423_K418N]', 'SH2 binding enrichment', 0.399),
  ('DSSIRYLQEIF [FGG_Y135_YF]', 'SH2 binding enrichment', 0.473);

Below are some sequences; for each one, tell me its SH2 binding enrichment.
1. LVMFFYAIFGM [SCN1A_Y1684_I1683F]
2. PLDEEYFTLQI [TP53_Y327_G325E]
3. VVIMLYGVDSR [PKD1_Y3143_G3139V]
4. REAAAYLHGRL [AGXT_Y297]
5. ILGRTHFVNHE [NEDD4_Y627_Y627H_YF]

a:
1. 1.44
2. 0.551
3. 0.645
4. 0.557
5. 0.466

====

- System: c-Src
- measurement notes: phosphorylation enrichment, bacterial display (enrichment ratio); higher = better substrate or ligand; peptides without Tyr show the background
recorded metric: phosphorylation enrichment

# example entries with known answers
INSERT INTO assay_data (input_sequence, meas_value) VALUES
  ('DYSLKYPTDIP [APC_Y1183_A1184P]', 0.442),
  ('KNDSKYVVKGN [KIT_Y823_N822K]', 0.473),
  ('PADCRYFTFPQ [GAMT_Y222_A224T_YF]', 2.58),
  ('ATCKAYGQALA [TKT_Y321_R318C]', 0.493),
  ('VSYDEYRYRSV [CFTR_Y515]', 0.743);

Below are some sequences; for each one, tell me its phosphorylation enrichment.
1. QELRRYLKSGI [MICA_Y194_V199I]
2. MAYDRYVAICS [OR8D4_Y123_C120Y]
3. GADAIYDHVNE [UQCR10_Y44_I47V]
4. RQQEVYLLFKQ [RARRES1_Y159_D158V_YF]
5. RKTAKYLLKGE [CDH5_Y82_N79T]
6. RMQLPYDSTWE [PDGFRB_Y589_P584R]
7. CTTIHYNYRCN [TP53_Y234_M237R]

a:
[0.294, 0.762, 3.77, 0.788, 0.535, 0.996, 0.522]

Below are some sequences; for each one, tell me its phosphorylation enrichment.
1. NTQRPYFKGGG [TYROBP_Y111_YF]
2. LGRGKSSEVFE [CSNK2A1_Y50_Y50S]
3. PQDVTYARLHS [LILRB4_Y412_Q414R]
4. LRVHSYKSMQH [DRC7_Y516_P521H]
5. MFCASYDTKQE [F10_Y407_G406S]
6. LPSKDYAEVRR [HP_Y272_G276R]

a:
[0.461, 0.653, 2.3, 1.06, 0.511, 0.832]

Below are some sequences; for each one, tell me its phosphorylation enrichment.
1. HSKGIYYVQLE [MGAT4B_Y262_Q257H]
2. IKAGAYDFPSP [CAMK2A_Y230]
3. ADRSCYDLSCR [GARS1_Y467_H472R]
4. RVEDACILTCN [CCT6A_Y229_Y229C]
5. QTSTDYDIRFF [CSNK2A1_Y131_L128S_YF]
6. CSRRFYQLTKL [AR_Y858]
7. FKTPTYPFLLP [PLD2_Y578_YF]

a:
4.78
0.485
0.616
0.727
0.892
0.527
0.552

====

- system: FGFR1 (UniProt P11362)
- Sequence (P11362 whole entry, looked up): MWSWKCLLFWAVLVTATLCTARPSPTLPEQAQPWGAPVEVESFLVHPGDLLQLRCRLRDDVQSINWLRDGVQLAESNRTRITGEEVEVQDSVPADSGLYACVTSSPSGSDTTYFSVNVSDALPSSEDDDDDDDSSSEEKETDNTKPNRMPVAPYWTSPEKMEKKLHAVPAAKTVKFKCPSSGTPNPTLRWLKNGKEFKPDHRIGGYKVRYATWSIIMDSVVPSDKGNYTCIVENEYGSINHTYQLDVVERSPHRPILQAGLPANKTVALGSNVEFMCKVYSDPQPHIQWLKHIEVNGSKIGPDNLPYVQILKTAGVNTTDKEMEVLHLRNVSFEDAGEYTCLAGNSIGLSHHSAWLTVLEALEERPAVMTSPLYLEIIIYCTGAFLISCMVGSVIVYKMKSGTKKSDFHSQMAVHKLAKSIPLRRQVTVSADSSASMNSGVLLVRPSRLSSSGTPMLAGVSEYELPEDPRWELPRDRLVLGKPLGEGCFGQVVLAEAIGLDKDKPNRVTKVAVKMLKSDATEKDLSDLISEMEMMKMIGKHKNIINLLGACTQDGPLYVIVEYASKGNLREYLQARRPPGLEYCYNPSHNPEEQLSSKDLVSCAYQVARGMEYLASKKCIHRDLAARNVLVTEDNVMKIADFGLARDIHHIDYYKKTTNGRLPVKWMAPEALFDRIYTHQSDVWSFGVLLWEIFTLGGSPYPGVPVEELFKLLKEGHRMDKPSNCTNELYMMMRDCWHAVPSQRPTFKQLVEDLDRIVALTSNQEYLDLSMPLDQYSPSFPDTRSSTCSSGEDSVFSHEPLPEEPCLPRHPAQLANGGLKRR
- measurement notes: phosphorylation enrichment, bacterial display (enrichment ratio); higher = better substrate or ligand; peptides without Tyr show the background
recorded metric: phosphorylation enrichment
Numbers only.

INSERT INTO measurements (input_sequence, meas_value) VALUES
  ('LQRVQCDLQKA [DSP_Y1512_Y1512C]', 1.06),
  ('PQAVTYAKVKH [LILRB4_Y360]', 0.398);

Below are some sequences; for each one, tell me its phosphorylation enrichment.
1. KNRDVYSSDFF [USP24_Y2134_YF]
2. IHFAIYFLKYS [ARMC9_Y107_L108F]
3. AAVNGYVFGGG [ECHS1_Y137_A138V]
4. DSGKLYALDVL [INO80_Y1104]

a:
0.718
0.666
0.437
0.525

Below are some sequences; for each one, tell me its phosphorylation enrichment.
1. YQGGTYSKAST [FGG_Y380]
2. AHLTEYLSTHY [UQCRC1_Y219_D215H]
3. INNIDYFKNTT [FGFR2_Y656_K659N_YF]
4. KGFCGYSFDDI [TMEM230_Y110_R108C_YF]
5. LTERGYSFVTT [ACTA1_Y200]

a:
0.423
0.475
0.377
0.595
0.927

====

- System: AncSZ
- measurement notes: phosphorylation enrichment, bacterial display (enrichment ratio); higher = better substrate or ligand; peptides without Tyr show the background
Parameter threshold = 1. Response is Yes when phosphorylation enrichment meets or exceeds it, else No.

Reference set, count: 5
INSERT INTO assay_data (input_sequence, system, assigned_category) VALUES
  ('PGNIVYSSLCG [BCOR_Y90]', 'AncSZ', 'Yes'),
  ('SLMGCYNLTFM [HS6ST3_Y323_V320M]', 'AncSZ', 'Yes'),
  ('FRIDHYLGKEM [G6PD_Y202_YF]', 'AncSZ', 'No'),
  ('TVSTGYTQPQP [SARG_Y259_R258G]', 'AncSZ', 'No'),
  ('MHFSNYVSKGS [PDGFRA_Y849_D846Y_YF]', 'AncSZ', 'No');

q: Given the entry KDHRDYKYQPR [SOX9_Y172_P170R] , answer whether its phosphorylation enrichment meets or surpasses 1.
a: No

q: Given the entry FFVVEYRDQKP [MUC17_Y4332_YF] , answer whether its phosphorylation enrichment meets or surpasses 1.
a: Yes

q: Given the entry KKGIVYIFNGR [ITGAV_Y404] , answer whether its phosphorylation enrichment meets or surpasses 1.
a: No

q: Given the entry PQDVTYARLHS [LILRB4_Y412_Q414R] , answer whether its phosphorylation enrichment meets or surpasses 1.
a: No

q: Given the entry VYAADYYKLLG [ROR2_Y645] , answer whether its phosphorylation enrichment meets or surpasses 1.
a: Yes

q: Given the entry PMDTFYDSTRG [DYNC2H1_Y2231_YF] , answer whether its phosphorylation enrichment meets or surpasses 1.
a: Yes

q: Given the entry CTTIHYNYMSN [TP53_Y234_C238S] , answer whether its phosphorylation enrichment meets or surpasses 1.
a: No

q: Given the entry PFDAEYGGGGG [AKR1B10_Y316_N313D] , answer whether its phosphorylation enrichment meets or surpasses 1.
a: Yes

====

What phosphorylation enrichment was measured for each of the following?
- system: MERTK (UniProt Q12866)
- Sequence (Q12866 whole entry, looked up): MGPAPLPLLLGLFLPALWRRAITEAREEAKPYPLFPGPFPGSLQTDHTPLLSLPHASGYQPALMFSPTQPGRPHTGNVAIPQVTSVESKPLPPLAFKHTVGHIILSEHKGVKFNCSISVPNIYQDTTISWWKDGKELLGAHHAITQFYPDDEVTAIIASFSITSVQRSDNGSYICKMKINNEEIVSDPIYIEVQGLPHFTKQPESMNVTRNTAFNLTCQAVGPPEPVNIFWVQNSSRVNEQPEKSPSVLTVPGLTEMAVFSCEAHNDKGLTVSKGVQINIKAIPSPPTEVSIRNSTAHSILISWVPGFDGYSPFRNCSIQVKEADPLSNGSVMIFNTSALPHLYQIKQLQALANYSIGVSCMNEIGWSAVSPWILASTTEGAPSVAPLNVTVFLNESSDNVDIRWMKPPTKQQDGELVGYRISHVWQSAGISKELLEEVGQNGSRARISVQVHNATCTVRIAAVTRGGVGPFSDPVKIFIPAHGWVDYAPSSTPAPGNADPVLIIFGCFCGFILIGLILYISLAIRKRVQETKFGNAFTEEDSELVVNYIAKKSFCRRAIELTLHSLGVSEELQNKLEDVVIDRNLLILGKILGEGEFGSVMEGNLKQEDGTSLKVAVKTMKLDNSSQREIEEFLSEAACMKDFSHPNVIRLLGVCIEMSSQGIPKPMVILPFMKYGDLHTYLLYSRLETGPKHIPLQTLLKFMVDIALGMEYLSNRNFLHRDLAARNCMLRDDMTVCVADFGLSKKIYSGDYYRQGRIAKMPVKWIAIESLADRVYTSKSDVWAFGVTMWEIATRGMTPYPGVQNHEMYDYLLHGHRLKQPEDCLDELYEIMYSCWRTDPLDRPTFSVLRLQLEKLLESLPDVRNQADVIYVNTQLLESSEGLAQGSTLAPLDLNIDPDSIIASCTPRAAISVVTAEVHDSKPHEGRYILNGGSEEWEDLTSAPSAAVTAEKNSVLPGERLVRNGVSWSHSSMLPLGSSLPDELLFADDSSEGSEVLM
- measurement notes: phosphorylation enrichment, bacterial display (enrichment ratio); higher = better substrate or ligand; peptides without Tyr show the background
Numbers only.

# example entries with known answers
INSERT INTO measurements (input_sequence, meas_value) VALUES
  ('FFNSEYGELSE [FLT4_Y1337_YF]', 0.399),
  ('FADIAYNYRQG [PAH_Y166_H170Q]', 0.43),
  ('TARWEYMHSPS [CPOX_Y429]', 1.08);

Below are some sequences; for each one, tell me its phosphorylation enrichment.
1. FGPPQYNMQFS [ERBB2IP_Y977_I979M_YF]
2. SNMPSYSGHFT [GRIN2A_Y1224_T1223S]
3. LGRGKSSEVFE [CSNK2A1_Y50_Y50S]
4. DWRQEYVLNES [TGM1_Y267]

a:
1. 0.376
2. 0.411
3. 0.639
4. 0.53

====

- system: Fes (UniProt P07332)
- Sequence (P07332 whole entry, looked up): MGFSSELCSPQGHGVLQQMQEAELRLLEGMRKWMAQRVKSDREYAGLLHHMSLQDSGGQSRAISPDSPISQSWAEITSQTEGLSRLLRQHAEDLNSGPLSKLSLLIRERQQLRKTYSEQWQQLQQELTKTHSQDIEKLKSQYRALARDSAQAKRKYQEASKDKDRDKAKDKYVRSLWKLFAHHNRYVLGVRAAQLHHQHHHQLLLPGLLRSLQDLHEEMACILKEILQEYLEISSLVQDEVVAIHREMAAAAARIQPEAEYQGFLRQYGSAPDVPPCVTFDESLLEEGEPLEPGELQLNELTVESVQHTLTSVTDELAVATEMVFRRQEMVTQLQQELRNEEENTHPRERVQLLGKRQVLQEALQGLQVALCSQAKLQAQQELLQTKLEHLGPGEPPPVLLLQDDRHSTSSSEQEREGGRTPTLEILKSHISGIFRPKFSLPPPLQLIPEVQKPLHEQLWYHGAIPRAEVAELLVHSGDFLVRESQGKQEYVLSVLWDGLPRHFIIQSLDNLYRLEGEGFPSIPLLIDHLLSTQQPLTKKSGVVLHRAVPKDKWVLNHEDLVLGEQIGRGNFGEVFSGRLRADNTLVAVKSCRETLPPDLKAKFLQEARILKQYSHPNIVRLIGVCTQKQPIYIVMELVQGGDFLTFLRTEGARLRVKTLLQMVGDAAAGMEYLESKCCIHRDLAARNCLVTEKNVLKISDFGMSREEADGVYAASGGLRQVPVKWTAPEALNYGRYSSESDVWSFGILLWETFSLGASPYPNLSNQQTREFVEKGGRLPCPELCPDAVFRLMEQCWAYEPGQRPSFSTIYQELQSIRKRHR
- measurement notes: phosphorylation enrichment, bacterial display (enrichment ratio); higher = better substrate or ligand; peptides without Tyr show the background
What phosphorylation enrichment was measured for each of the following?
Answers are plain numbers.

INSERT INTO measurements (input_sequence, meas_value) VALUES
  ('LIGRRCDDPEV [HSPA9_Y128_Y128C]', 1.51),
  ('NGQALYAACQT [XDH_Y1092_V1091L]', 0.916),
  ('KGLKVYVNGTL [ADGRD1_Y183_E178K]', 1.16),
  ('LSIQCYLRALD [HMGCS2_Y262]', 2.81),
  ('EQKKFSNAMKK [SCN5A_Y1495_Y1495S_YF]', 0.473);

Below are some sequences; for each one, tell me its phosphorylation enrichment.
1. ARKRKYFKKHE [NFIX_Y40]
2. RSSGGYEPRGR [FUS_Y239]
3. HFGCVYHGTLL [MET_Y1093]
4. GAAMLYYPSVS [GPR143_Y177]
5. YQNGMYGLHQD [SGSH_Y89_H84Y]
6. FFNSEYGELSE [FLT4_Y1337_YF]

a:
1. 0.653
2. 0.569
3. 1.67
4. 0.783
5. 0.808
6. 1.24
